Source of measurements: ChEMBL document CHEMBL3593216

- Tested on: Mycobacterium tuberculosis
- method description: Antitubercular activity against Mycobacterium tuberculosis H37Rv ATCC 27294 incubated up to 7 days measured on day 7 by microplate Alamar Blue assay
- Format: functional
- study conditions: H37Rv ATCC 27294, 168 h
# strict inequality: MIC90 < 20 µM yields rule met, everything else yields rule not met

Criterion: MIC90 strictly below 20 µM. Is it met by "COc1ccc(-c2csc(Nc3cc(Cl)cc(Cl)c3)n2)cc1" ?
rule met

Is 20 µM strictly greater than the molecule's reported MIC90? molecule: "O=[N+]([O-])c1cccc(-c2nc(-c3ccccc3)c[nH]2)c1"
rule not met

Strictly below 20 µM: is that where MIC90 of "FC(F)(F)c1ccc(-c2c[nH]c(-c3ccccc3)n2)cc1" sits?
rule not met

Determine whether this molecule shows MIC90 lower than 20 µM (ties excluded): "COc1ccc(-c2nc(-c3ccccc3)c[nH]2)cc1"
rule not met

Strictly below 20 µM: is that where MIC90 of "Cn1cc(-c2cccc(C(F)(F)F)c2)nc1-c1cccc(C(F)(F)F)c1" sits?
rule met

More entries:
Lab note: confirm whether the reported MIC90 for this molecule is below 20 µM, equality not counting. molecule: "Cc1[nH]c(-c2cccc(C(F)(F)F)c2)nc1-c1cccc(C(F)(F)F)c1"
rule met

Consider "COc1cccc(-c2nc(-c3ccccc3)c[nH]2)c1OC" . Does its MIC90 lie strictly below 20 µM?
rule not met

Hi there! Is MIC90 for "Clc1cccc(-c2nc(-c3ccccc3)c[nH]2)c1" below 20 µM, do you know?
rule not met

###

- System: Mycobacterium tuberculosis
- method description: Antitubercular activity against Mycobacterium tuberculosis H37Rv ATCC 27294 incubated up to 7 days measured on day 7 by microplate Alamar Blue assay
- Type: functional
- study conditions: H37Rv ATCC 27294, 168 h
Rule: measured MIC90 below 60 µM gets t; anything equal to or greater than 60 µM gets f.

Determine whether this compound shows MIC90 lower than 60 µM (ties excluded): "FC(F)(F)c1cccc(-c2c[nH]c(-c3ccccc3)n2)c1"
t

Field: below-cutoff. Rule: recorded MIC90 strictly less than 60 µM. Subject: "FC(F)(F)c1cccc(-c2nc(-c3ccccc3)c[nH]2)c1"
t

Strictly below 60 µM in MIC90? "COc1ccc(-c2c[nH]c(-c3ccccc3)n2)cc1"
f

More entries:
Answer whether the compound "COc1cccc(-c2c[nH]c(-c3ccccc3)n2)c1" has MIC90 strictly less than 60 µM
f

Does the reported MIC90 of "c1ccc(-c2c[nH]c(-c3ccccc3)n2)cc1" stay below 60 µM?
f

###

In this section, each of the compounds is paired with its reported MIC90.
- Test system: Mycobacterium tuberculosis
- method description: Antitubercular activity against Mycobacterium tuberculosis H37Rv ATCC 27294 incubated up to 7 days measured on day 7 by microplate Alamar Blue assay
- Format: functional
- study conditions: H37Rv ATCC 27294, 168 h
State the answer as a number, implicitly in µM.

See these solved cases before continuing.
Give its MIC90 value. Item: "c1ccc(-c2c[nH]c(C3CCCCC3)n2)cc1"
125

May I ask what MIC90 has been recorded for "FC(F)(F)c1cccc(-c2c[nH]c(-c3cc(C(F)(F)F)cc(C(F)(F)F)c3)n2)c1" ?
7.7

What does the data say about its MIC90? Entry: "CO[C@H]1/C=C/O[C@@]2(C)Oc3c(C)c(O)c4c(O)c(c(/C=N/N5CCN(C)CC5)c(O)c4c3C2=O)NC(=O)/C(C)=C\C=C\[C@H](C)[C@H](O)[C@@H](C)[C@@H](O)[C@@H](C)[C@H](OC(C)=O)[C@@H]1C"
0.05

More entries:
Name the recorded MIC90 for "FC(F)(F)Oc1cccc(-c2nc(-c3ccccc3)c[nH]2)c1" .
35.5

Consider the compound "c1ccc(-c2c[nH]c(-c3ccsc3)n2)cc1" and give its measured MIC90.
107

Fill in: MIC90 of "FC(F)(F)c1cccc(-c2c[nH]c(-c3cccc(C(F)(F)F)c3)n2)c1" is ___
1.7

# MIC90 lookup, item "FC(F)(F)c1ccc(-c2nc(-c3ccccc3)c[nH]2)cc1"
48.9

Which MIC90 value belongs to "FC(F)(F)c1cccc(-c2c[nH]c(-c3ccc(Cl)cc3)n2)c1" ?
29.8

###

The compounds listed here are annotated with their MIC90.
- Test system: Mycobacterium tuberculosis
- method description: Antitubercular activity against Mycobacterium tuberculosis H37Rv ATCC 27294 incubated up to 7 days measured on day 7 by microplate Alamar Blue assay
- Format: functional
- study conditions: H37Rv ATCC 27294, 168 h
Please reply with the bare figure in µM and do not write the unit itself.

# annotated cases, reported MIC90 shown
Please report the recorded MIC90 for "Clc1ccc(-c2nc(-c3ccccc3)c[nH]2)cc1" .
59.8

Entry "Cc1ccc(-c2nc(-c3ccccc3)c[nH]2)cc1" has what MIC90?
124

New cases:
Can you look up the measured MIC90 of "Fc1cc(-c2nc(-c3cccc(C(F)(F)F)c3)c[nH]2)cc(C(F)(F)F)c1" for me?
6

###

- System: Mycobacterium tuberculosis
- method description: Antitubercular activity against Mycobacterium tuberculosis H37Rv ATCC 27294 incubated up to 7 days measured on day 7 by microplate Alamar Blue assay
- Type: functional
- study conditions: H37Rv ATCC 27294, 168 h
assay endpoint: MIC90

Notebook: pull reported MIC90 for Mycobacterium tuberculosis, entry "Clc1cccc(-c2c[nH]c(-c3ccccc3)n2)c1"
60.3 µM

Enter reported MIC90 observed with Mycobacterium tuberculosis for "COc1ccc(-c2csc(Nc3ccc(C)cc3)n2)cc1"
15.6 µM

State its MIC90 on Mycobacterium tuberculosis: "COc1cccc(-c2nc(-c3ccccc3)c[nH]2)c1"
73.7 µM

Lab note: need MIC90 for "COc1cc(-c2nc(-c3cccc(C(F)(F)F)c3)c[nH]2)cc(C(F)(F)F)c1" on Mycobacterium tuberculosis, anyone have it?
7.3 µM

Let us examine a further case.
Please tell me: MIC90 of "NNC(=O)c1ccncc1" , system Mycobacterium tuberculosis?
0.1 µM

###

The entries below come with measured MIC90 values attached.
- System: Mycobacterium tuberculosis
- method description: Antitubercular activity against Mycobacterium tuberculosis H37Rv ATCC 27294 incubated up to 7 days measured on day 7 by microplate Alamar Blue assay
- Assay type: functional
- study conditions: H37Rv ATCC 27294, 168 h

Name the recorded MIC90 for "O=[N+]([O-])c1ccc(-c2c[nH]c(-c3ccccc3)n2)cc1" .
> 128 µM

So what does the record say about MIC90 for "COc1ccccc1-c1nc(-c2ccccc2)c[nH]1" ?
> 128 µM

// switching to the query compound
Give the measured MIC90 of "Oc1ccc(-c2nc(-c3ccccc3)c[nH]2)cc1" .
> 128 µM
